# System: L1210 leukemia ip in BDF1 mice, survival T/C
# METHOD SUMMARY: NCI In Vivo Anticancer Drug Screen. Data for tumor model L1210 Leukemia (intraperitoneal) in B6D2F1 (BDF1) mice
# CONDITIONS: endpoint: mean survival time; dose: 30.0 mg/kg/injection; schedule: Q01DX Z (ip); vehicle: saline; higher = longer survival
Toxic doses and inconclusive results are not listed.
Overview of recorded T/C for various molecules

{"SMILES STR": "c1ccc2c(C3=NCCN3)ccc(C3=NCCN3)c2c1", "T/C": "101 % of control"}
{"SMILES STR": "CCCCCCCCCCCCC/C=N\\N=C(N)N", "T/C": "89 % of control"}
{"SMILES STR": "CCCCCC/C=N\\N=C(N)N", "T/C": "97 % of control"}
{"SMILES STR": "O=C(Nc1ccc(NC2=NCCN2)cc1)c1ccc(C(=O)Nc2ccc(NC3=NCCN3)cc2)cc1", "T/C": "114 % of control"}
{"SMILES STR": "CN=C(NC)c1ccc(NC(=O)c2cccc(C(=O)Nc3ccc(C(=NC)NC)cc3)c2)cc1", "T/C": "119 % of control"}
{"SMILES STR": "O=C(NCCCCCCNC(=O)OCc1ccccc1)OCc1ccccc1", "T/C": "96 % of control"}

###

# System: L1210 leukemia ip in BDF1 mice, survival T/C
# METHOD SUMMARY: NCI In Vivo Anticancer Drug Screen. Data for tumor model L1210 Leukemia (intraperitoneal) in B6D2F1 (BDF1) mice
# CONDITIONS: endpoint: mean survival time; dose: 100.0 mg/kg/injection; schedule: Q04DX003 (ip); vehicle: water; higher = longer survival
Toxic doses and inconclusive results are not listed.
REPORTED METRIC: T/C

{"COMPOUND": "CCOC(=O)CNCc1ccc(C)cc1", "TESTED TARGET": "L1210 leukemia ip in BDF1 mice, survival T/C", "REPORTED VALUE": "93 % of control"}
{"COMPOUND": "Nc1ccc2cn[nH]c2c1", "TESTED TARGET": "L1210 leukemia ip in BDF1 mice, survival T/C", "REPORTED VALUE": "96 % of control"}
{"COMPOUND": "CCCCCO/N=C\\c1c2c(O)c3c(O)c(C)c4c(c3c1O)C(=O)C(C)(O/C=C\\C(OC)C(C)C(OC(C)=O)C(C)C(O)C(C)C(O)C(C)/C=C\\C=C(\\C)C(=O)N2)O4 (centres undefined)", "TESTED TARGET": "L1210 leukemia ip in BDF1 mice, survival T/C", "REPORTED VALUE": "94 % of control"}
{"COMPOUND": "Cc1cc(C(=O)O)c(CN2C(=O)c3ccccc3C2=O)c(=O)n1C", "TESTED TARGET": "L1210 leukemia ip in BDF1 mice, survival T/C", "REPORTED VALUE": "102 % of control"}

###

# Test system: L1210 leukemia ip in BDF1 mice, survival T/C
# METHOD SUMMARY: NCI In Vivo Anticancer Drug Screen. Data for tumor model L1210 Leukemia (intraperitoneal) in B6D2F1 (BDF1) mice
# CONDITIONS: endpoint: mean survival time; dose: 6.25 mg/kg/injection; schedule: Q01DX009 (ip); vehicle: Klucel (hydroxypropylcellulose) (HPC); higher = longer survival
# Experimental: The antitumor activity of compounds was measured in mice bearing transplantable tumors. Survival or tumor size were measured and the results are expressed as the measurement made in the treated group (T) divided by the measurement made in the vehicle treated control group (C). The tumor model used in this assay is L1210 Leukemia (intraperitoneal) in B6D2F1 (BDF1) mice
Toxic doses and inconclusive results are not listed.
REPORTED METRIC: T/C

{"COMPOUND": "CCc1c2cc3c(cc2cc2c4cc5c(cc4cc[n+]12)OCO5)OCO3 (tested in a mixture with another compound)", "TESTED TARGET": "L1210 leukemia ip in BDF1 mice, survival T/C", "REPORTED VALUE": "110 % of control"}
{"COMPOUND": "O=C(O)C(=O)Nc1ncn[nH]1", "TESTED TARGET": "L1210 leukemia ip in BDF1 mice, survival T/C", "REPORTED VALUE": "104 % of control"}
{"COMPOUND": "O=C1C=CC(=O)N1c1ccc([N+](=O)[O-])cc1", "TESTED TARGET": "L1210 leukemia ip in BDF1 mice, survival T/C", "REPORTED VALUE": "92 % of control"}
{"COMPOUND": "CC(C)C[CH2][Pb]([CH2]CC(C)C)([CH2]CC(C)C)[O]C(=O)C(Cl)(Cl)Cl", "TESTED TARGET": "L1210 leukemia ip in BDF1 mice, survival T/C", "REPORTED VALUE": "95 % of control"}

###

# Tested on: L1210 leukemia ip in BDF1 mice, survival T/C
# METHOD SUMMARY: NCI In Vivo Anticancer Drug Screen. Data for tumor model L1210 Leukemia (intraperitoneal) in B6D2F1 (BDF1) mice
# CONDITIONS: endpoint: mean survival time; dose: 400.0 mg/kg/injection; schedule: Q01DX001 (ip); vehicle: other; higher = longer survival
Toxic doses and inconclusive results are not listed.

{"SMILES STR": "[CH3][Sn]1([CH3])[c]2ccccc2Oc2cccc[c]21", "TESTED TARGET": "L1210 leukemia ip in BDF1 mice, survival T/C", "T/C": "87 % of control"}
{"SMILES STR": "CC(C)C1(C(C)C)NC(=O)NC1=O", "TESTED TARGET": "L1210 leukemia ip in BDF1 mice, survival T/C", "T/C": "106 % of control"}
{"SMILES STR": "NC(=S)N/N=C/c1cc(Cl)cc(Cl)c1", "TESTED TARGET": "L1210 leukemia ip in BDF1 mice, survival T/C", "T/C": "106 % of control"}
{"SMILES STR": "CCCCNC(=O)c1cccc2c1-c1ccccc1C2=O", "TESTED TARGET": "L1210 leukemia ip in BDF1 mice, survival T/C", "T/C": "96 % of control"}
{"SMILES STR": "N#C/C(=C\\c1ccncc1)c1ccccc1Cl", "TESTED TARGET": "L1210 leukemia ip in BDF1 mice, survival T/C", "T/C": "96 % of control"}
{"SMILES STR": "CNC(=O)c1ccccc1-c1ccccc1C(=O)NC", "TESTED TARGET": "L1210 leukemia ip in BDF1 mice, survival T/C", "T/C": "98 % of control"}
{"SMILES STR": "O=C(CC(CC(=O)c1ccccc1)c1ccccn1)c1ccccc1", "TESTED TARGET": "L1210 leukemia ip in BDF1 mice, survival T/C", "T/C": "102 % of control"}
{"SMILES STR": "NC(=O)c1cc([N+](=O)[O-])ccc1N", "TESTED TARGET": "L1210 leukemia ip in BDF1 mice, survival T/C", "T/C": "95 % of control"}
{"SMILES STR": "NC(=O)NN=C1CCCCCCCCCCC1", "TESTED TARGET": "L1210 leukemia ip in BDF1 mice, survival T/C", "T/C": "103 % of control"}
{"SMILES STR": "Cc1[nH]nc2c(NO)ncnc12", "TESTED TARGET": "L1210 leukemia ip in BDF1 mice, survival T/C", "T/C": "102 % of control"}

###

# System: L1210 leukemia ip in BDF1 mice, survival T/C
# METHOD SUMMARY: NCI In Vivo Anticancer Drug Screen. Data for tumor model L1210 Leukemia (intraperitoneal) in B6D2F1 (BDF1) mice
# CONDITIONS: endpoint: mean survival time; dose: 100.0 mg/kg/injection; schedule: Q01DX009 (ip); vehicle: acetone; higher = longer survival
Inconclusive results and toxic doses are left out.
Overview of recorded T/C for various molecules

{"SMILES STR": "CN1c2ccc3ccccc3c2Sc2ccc3ccccc3c21", "T/C": "100 % of control"}
{"SMILES STR": "O=S(=O)(C1=C(c2ccccc2)CCCC1)c1ccccc1", "T/C": "104 % of control"}
{"SMILES STR": "CC(C)N1CCOCC1", "T/C": "102 % of control"}
{"SMILES STR": "Nc1c(Br)cc(Br)c2ccccc12", "T/C": "93 % of control"}

###

# Tested on: L1210 leukemia ip in BDF1 mice, survival T/C
# METHOD SUMMARY: NCI In Vivo Anticancer Drug Screen. Data for tumor model L1210 Leukemia (intraperitoneal) in B6D2F1 (BDF1) mice
# CONDITIONS: endpoint: mean survival time; dose: 100.0 mg/kg/injection; schedule: Q04DX002 (ip); vehicle: Klucel (hydroxypropylcellulose) (HPC); higher = longer survival
Toxic doses and inconclusive results are not listed.
Overview of recorded T/C for various compounds

{"SMILES STR": "FC(F)(F)c1cccc(NC(=S)NNC(=S)NNc2ccccc2)c1", "T/C": "101 % of control"}
{"SMILES STR": "S=P(N1CCOCC1)(N1CCOCC1)N1CCOCC1", "T/C": "103 % of control"}
{"SMILES STR": "CC(C)(C)S(=O)(=O)CCS(=O)(=O)C(C)(C)C", "T/C": "104 % of control"}
{"SMILES STR": "CCN(Cc1ccccc1)C(=S)Nc1ccccc1", "T/C": "96 % of control"}
{"SMILES STR": "NNC(=O)CNc1cc(Cl)cc(Cl)c1", "T/C": "91 % of control"}
{"SMILES STR": "COc1ccc(NC(=O)c2cccc(C(=O)Nc3ccc(OC)cc3Cl)c2)c(Cl)c1", "T/C": "97 % of control"}
{"SMILES STR": "COC(=O)[C@@H]1[C@H](O)[C@H](C)[C@H](O)[C@H](C)/C=C\\C=C(C)C(=O)Nc2c(C)c(OC(C)=O)c3c(c2O)C(=O)C(C)=C2OCOC(=C23)C(C)=C[C@@](C)(O)[C@H](O)[C@@H](C)[C@H]1OC(C)=O", "T/C": "96 % of control"}
{"SMILES STR": "COc1ccc(/C=N\\NC(=O)c2ccncc2)cc1", "T/C": "113 % of control"}
{"SMILES STR": "O=C1/C(=C\\c2ccc([N+](=O)[O-])cc2)N2CCC1CC2", "T/C": "102 % of control"}
{"SMILES STR": "ClCC1=NCCCN1", "T/C": "98 % of control"}

This collection of values is drawn from PubChem BioAssay AID248.
